- System Tested: MMP-1 (Homo sapiens, UniProt P03956)
- Sequence (P03956 100-469): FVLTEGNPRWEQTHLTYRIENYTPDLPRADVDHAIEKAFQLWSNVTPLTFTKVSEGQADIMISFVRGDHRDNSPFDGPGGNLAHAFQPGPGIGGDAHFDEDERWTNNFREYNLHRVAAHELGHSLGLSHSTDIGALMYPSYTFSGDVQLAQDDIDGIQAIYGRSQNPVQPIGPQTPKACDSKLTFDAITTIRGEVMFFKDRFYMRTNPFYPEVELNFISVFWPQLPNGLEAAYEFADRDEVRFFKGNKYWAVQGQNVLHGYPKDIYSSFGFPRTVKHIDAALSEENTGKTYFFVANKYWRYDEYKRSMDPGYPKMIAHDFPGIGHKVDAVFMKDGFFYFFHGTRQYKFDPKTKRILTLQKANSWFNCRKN
- Measurement Notes: MMP-1 inhibitory action (Type I collagen Activity Measurement kit, FITC-labeled collagen type I)
- Format: biochemical
- Condition Label: MMP-1 inhibitory action, FITC-labeled collagen type I, 37° C. for 3 hr; read-out: IC50 MMP1 (Experimental Example 2)
Endpoint Name: IC50

> print(dat)
                                   molecule  endpoint.name  reported.measurement
1  O=C(O)C1(NS(=O)(=O)c2ccc(-c3ccc(Cl)cc3)cc2)CC1c1cccc(OCc2cccnc2)c1 (stereo not shown)           IC50               ≥ 10 µM

Return reported IC50; argument: CC(F)(F)c1cc(-c2ccc(S(=O)(=O)N[C@@]3(C(=O)O)C[C@@H]3c3ccccc3)s2)ns1
≥ 1 µM

Look at this molecule and give its reported IC50. COC(=O)N1CC=C(c2ccc(S(=O)(=O)N[C@@]3(C(=O)O)C[C@@H]3c3ccccc3)s2)CC1
≥ 10 µM

// returns reported IC50 for input O=C(NCCc1cccc(C2CC2(NS(=O)(=O)c2ccc(-c3cc(C(F)(F)F)on3)s2)C(=O)O)c1)N1CCOCC1 (stereo not shown)
≥ 1 µM

Request the reported IC50 associated with O=C(CO)Nc1cccc(C2CC2(NS(=O)(=O)c2ccc(-c3ccc(Cl)cc3)cc2)C(=O)O)c1 (stereo not shown)
≥ 1 µM

Quick one: IC50 of O=C(O)COc1ccccc1C1CC1(NS(=O)(=O)c1ccc(-c2ccc(Cl)cc2)s1)C(=O)O (stereo not shown) ?
≥ 10 µM

# IC50 lookup, item O=C(O)[C@@]1(NS(=O)(=O)c2ccc3c(c2)Cc2cc(Br)ccc2-3)C[C@H]1c1ccccc1
≥ 10 µM

For CC1(C)CC1(NS(=O)(=O)c1ccc(-c2ccc(Cl)cc2)s1)C(=O)O (stereo not shown) , what is its reported IC50?
≥ 10 µM

Which IC50 is listed for O=C(O)[C@]1(NS(=O)(=O)c2ccc(-c3cc(C(F)F)sn3)s2)C[C@@H]1c1ccccc1 ?
< 1 µM

# lookup: IC50 of O=C(O)C1(NS(=O)(=O)c2ccc(-c3cc(C(F)(F)F)on3)s2)CC1(CCCO)c1ccccc1 (stereo not shown)
≥ 1 µM
